pIC50 by entry:
# system-name: BRD4 BD2 (Homo sapiens, UniProt O60885)
# method: AlphaScreen binding assay, BRD4 Bromodomain 2
pIC50: −log10 of the molar value.

Study these solved cases before continuing.
Qu. Please list pIC50 recorded for the compound CC(=O)N1c2ccccc2N(S(=O)(=O)Cc2ccccc2Cl)C[C@@H]1C [Example I-953]
Ans. < 6.30

Qu. Given CC(=O)N1c2ccccc2N(C(=O)c2cc3ccccc3[nH]2)CC1C (centres unmarked) [Example I-730] , respond with its pIC50.
Ans. < 6.30

Qu. Provide only the value of recorded pIC50 for CC(=O)N1c2ccc(-c3cnn(CCO)c3)cc2N(C(=O)OC(C)C)C[C@@H]1C [Example I-12]
Ans. > 7.30

Qu. Read the entry CC(=O)N1c2ccc(-c3cnn(C4COC4)c3)cc2N(C(=O)OCC(C)(F)F)C[C@@H]1C [Example I-68] and write its reported pIC50.
Ans. 6.30 to 7.30

Qu. Given the compound CC(=O)N1c2ccc(-c3cnn(C4CC4)c3)cc2N(C(=O)OC(CF)CF)C[C@@H]1C [Example I-80] , write its reported pIC50.
Ans. 6.30 to 7.30

Qu. Consider the compound CC(=O)N1c2ccc(-c3cnn(C4CCOCC4)c3)cc2N(C(=O)OC2CCC2)C[C@@H]1C [Example I-39] . State its measured pIC50.
Ans. > 7.30

Qu. Entry CC(=O)N1c2ccc(-c3ccc(S(=O)(=O)NC(C)C)cc3)cc2N(C(=O)c2ccco2)C[C@@H]1C [Example I-274] needs its pIC50 filled in; supply it.
Ans. > 7.30

Now for a further compound.
Qu. Query pIC50 for CC(=O)N1c2ccc(-c3cnn(Cc4cncs4)c3)cc2N(C(=O)OC(C)C)C[C@@H]1C [Example I-143]
Ans. 6.30 to 7.30

---

# system-name: BRD4 BD2 (Homo sapiens, UniProt O60885)
# method: AlphaScreen binding assay, BRD4 Bromodomain 2
property: IC50

# annotated cases, reported IC50 shown
Qu. # return IC50 for `CC(C)OC(=O)N1C[C@H](C)N(C(=O)C2CC2)c2ccc(-c3ccc(C(=O)N4CC[C@@H](O)C4)cc3)cc21` , test system: BRD4 BD2 (Homo sapiens, UniProt O60885)
Ans. 50 to 500 nM

Qu. State, for BRD4 BD2 (Homo sapiens, UniProt O60885), measured IC50 of the molecule listed here: `CC(=O)N1c2ccc(-c3cnn(CCO)c3)cc2N(C(=O)OC(CF)CF)C[C@@H]1C`
Ans. 50 to 500 nM

Qu. # assay system BRD4 BD2 (Homo sapiens, UniProt O60885): give IC50 of `CCOC(=O)N1C[C@H](C)N(C(C)=O)c2ccc(-c3ccc(S(=O)(=O)NCCO)cc3)cc21`
Ans. 50 to 500 nM

Qu. // output IC50; input `CC(=O)N1c2ccc(-c3ccn4ccnc4n3)cc2N(C(=O)c2ccco2)C[C@@H]1C` ; system BRD4 BD2 (Homo sapiens, UniProt O60885)
Ans. > 500 nM

Qu. Fill in IC50 for `CCN(CC)S(=O)(=O)c1cc(-c2ccc3c(c2)N(C(=O)C2CC2)C[C@H](C)N3C(C)=O)ccc1OC` tested with BRD4 BD2 (Homo sapiens, UniProt O60885).
Ans. 50 to 500 nM

Qu. Find the measured IC50 of `CC(=O)N1c2ccccc2N(Cc2cccc(OCCN(C)C)c2)C[C@@H]1C` with BRD4 BD2 (Homo sapiens, UniProt O60885) as test system.
Ans. 50 to 500 nM

Qu. // output IC50; input `CC(=O)N1c2ccc(-c3cnn(C4CC4)c3)cc2N(C(=O)Oc2cccc(C(F)(F)F)c2)C[C@@H]1C` ; system BRD4 BD2 (Homo sapiens, UniProt O60885)
Ans. < 50 nM

Qu. Enter IC50 (test system BRD4 BD2 (Homo sapiens, UniProt O60885)) for `CC(=O)N1c2ccc(-c3cnn(C4CCOCC4)c3)cc2N(C(=O)OC2CC(F)(F)C2)C[C@@H]1C`
Ans. 50 to 500 nM

Qu. State recorded IC50 with BRD4 BD2 (Homo sapiens, UniProt O60885), entry `CC(=O)N1c2ccccc2N(C(=O)CC2CCOCC2)C[C@@H]1C` , no comment.
Ans. > 500 nM

Qu. Give measured IC50 for `CC(C)OC(=O)N1C[C@H](C)N(C(=O)C2CC2)c2ccc(-c3cnn(CC(=O)N(C)C)c3)cc21` (BRD4 BD2 (Homo sapiens, UniProt O60885)).
Ans. 50 to 500 nM

---
Qu. Report the value of IC50 obtained on BRD4 BD2 (Homo sapiens, UniProt O60885) for `CC(=O)N1c2ccc(-c3ccc(S(C)(=O)=O)c(F)c3)cc2N(C(=O)C2CCC2)C[C@@H]1C` .
Ans. 50 to 500 nM

Qu. Please report the measured IC50 for `CCOC(=O)N1C[C@H](C)N(C(C)=O)c2ccc(-c3ccc(S(C)(=O)=O)c(F)c3)cc21` tested on BRD4 BD2 (Homo sapiens, UniProt O60885).
Ans. 50 to 500 nM

Qu. Tell me IC50 of `CC(=O)N1c2ccc(-c3cnn(C4COC4)c3)cc2N(C(=O)OCC2CCC2)C[C@@H]1C` when tested on BRD4 BD2 (Homo sapiens, UniProt O60885).
Ans. 50 to 500 nM

Qu. Return reported IC50 for target or system BRD4 BD2 (Homo sapiens, UniProt O60885), item `CC(=O)N1c2ccccc2N(C(=O)C2CCCC2)C[C@@H]1C` .
Ans. > 500 nM

Qu. Look up and report measured IC50 (BRD4 BD2 (Homo sapiens, UniProt O60885)) for the following molecule: `C[C@H]1CN(C(=O)OCC2CC2)c2cc(-c3cnn(C4CC4)c3)ccc2N1C(=O)C1CC1`
Ans. 50 to 500 nM

Qu. Find IC50 for `CC(=O)N1c2ccc(-c3ccc(S(C)(=O)=O)cc3)cc2N(C(=O)Oc2ccccc2Cl)C[C@@H]1C` on BRD4 BD2 (Homo sapiens, UniProt O60885) and write it down.
Ans. < 50 nM

Qu. Give IC50 for this entry on BRD4 BD2 (Homo sapiens, UniProt O60885): `CC(=O)N1c2ccc(-c3cnn(Cc4ccno4)c3)cc2N(C(=O)C2CC2)C[C@@H]1C`
Ans. 50 to 500 nM

Qu. Look up and report IC50, with BRD4 BD2 (Homo sapiens, UniProt O60885) as system, for `COC(=O)N1c2ccc(-c3cnc(N)cn3)cc2N(C(=O)OC(C)C)C[C@@H]1C`
Ans. 50 to 500 nM

Qu. // output IC50; input `COC(=O)N1c2ccc(-c3cnn(Cc4c(C)noc4C)c3)cc2N(C(=O)OC(C)C)C[C@@H]1C` ; system BRD4 BD2 (Homo sapiens, UniProt O60885)
Ans. 50 to 500 nM
